// provenance: ChEMBL document CHEMBL4513216

Test system: Plasmodium berghei
Experiment: Screen against P. berghei liver stage (PbLuc), transformed with Luciferase, at 10uM
Format: functional, HepG2
Conditions: tested at 10 uM
The campaign covered roughly 69,000 compounds. About 8,600 (12%) showed an effect of 50% or more. The entries come from a sample that favours strong results as a whole.
endpoint label: INHIBITION (%)
Your answer is read as %, so omit the unit and give the number.

# example entries with known answers
| compound | experimental target | INHIBITION, % |
| --- | --- | --- |
| Cc1cc(CN2CCN(c3ccc4nncn4n3)C(C)C2)on1 (configuration not stated) | Plasmodium berghei | 26.5 |
| CCN(CCOC)C(=O)c1ccc2c(c1)nc(N1CC[C@H](O)C1)n2C | Plasmodium berghei | 1.74 |

Q) State, for Plasmodium berghei, measured INHIBITION of the compound listed here: Cc1n[nH]c(C)c1Sc1ccccc1NC(=O)N1CCOCC(O)C1 (configuration not stated)
A) 25.4

Q) For Plasmodium berghei, give INHIBITION of the listed compound: `Cc1n[nH]c(C)c1Sc1ccccc1NC(=O)N1CCN(C)CC1`
A) 61.2

###

Below, each entry is listed alongside its reported INHIBITION.
Test system: Plasmodium berghei
Assay: Screen against P. berghei liver stage (PbLuc), transformed with Luciferase, at 10uM
Assay type: functional, HepG2
Settings: tested at 10 uM
Among all 69,000 compounds or so, about 8,600 (12%) showed an effect of 50% or more. This is one part of a sample in which strong results are shown more often than they occur.
State the answer as a number, implicitly in %.

Consider the following illustrative entries.
| compound | value unit | INHIBITION |
| --- | --- | --- |
| CS(=O)(=O)N1CCC2(CC1)COC(COc1ccccn1)C2 (stereo unspecified) | % | -27.9 |
| O=C(COc1cccc(F)c1)N1CCCCC1c1ccn2ccnc2n1 (stereo unspecified) | % | 1.11 |
| Cc1noc(C)c1-c1ccnc(C2CCNCC2)c1 | % | 67.7 |
| O=C(Nc1ccc(CCN2CCC(O)CC2)cc1)C1CCCCC1 | % | 29.2 |

Q) Return INHIBITION for the following compound: CCC(=O)NCC(=O)NCC1(O)CCC(C(C)(C)C)CC1 (stereo unspecified)
A) 38.3

Q) Determine from records and report INHIBITION for `CC[C@@H](CO)Nc1nccc(-c2cnc3sc(C)cn3c2=O)n1`
A) 11.5

###

Tested on: Plasmodium berghei
Assay: Screen against P. berghei liver stage (PbLuc), transformed with Luciferase, at 10uM
Format: functional, HepG2
Conditions: tested at 10 uM
About 8,600 (12%) of roughly 69,000 compounds showed an effect of 50% or more. This is one part of a sample in which strong results are shown more often than they occur.
endpoint label: INHIBITION (%)
Supply the numeric figure in %, leaving out any unit text.

Answered cases to consult:
| molecule | INHIBITION, % |
| --- | --- |
| CSc1nc2ncc3c(=O)n(C)ccc3n2n1 | -3.73 |
| CCc1nnc(CN2CCc3ccc(S(N)(=O)=O)cc32)o1 | 18 |
| CCc1nnc2n1CCN(C(=O)c1ccc3[nH]nnc3c1)C2 | -1.85 |

Q) Supply reported INHIBITION belonging to this molecule: `O=C([C@@H]1COC[C@H]2CN(c3ccncn3)C[C@H]21)N1CCCCO1`
A) -11.6

Q) Look up and report measured INHIBITION for this entry: `CCCc1nc(C(=O)N2CCn3nc(C(=O)OC)cc3C2)cs1`
A) 9.16

Q) Quickly give me recorded INHIBITION for `CSc1nc2ncc3c(=O)n(CCN4CCCCC4)ccc3n2n1`
A) 51

Q) Provide one value: measured INHIBITION of `CCN1CCN(S(=O)(=O)c2cc(C)c(Cl)cc2C)CC1`
A) 49.7

Q) Find the measured INHIBITION of `CCN1CCN(S(=O)(=O)c2ccc(Cc3cc(C)n[nH]c3=O)cc2)CC1` and report it.
A) 9.96

Q) Quickly give me recorded INHIBITION for `COCCn1ccc2c(cnc3nc(SC)nn32)c1=O`
A) 38.4

Q) Look up and state reported INHIBITION for O=C(CCCOc1cccc(F)c1)N1CCCC(n2cncn2)C1 (stereo unspecified)
A) -49.5

Q) Provide INHIBITION value for the following molecule: Cc1noc(C)c1S(=O)(=O)NCC(C)(O)c1ccc2c(c1)OCO2 (stereo unspecified)
A) 31.3
